- Target or test system: T1, ZIKV-VLP (Native Antigen Inc.) (Zika virus)
- T1 construct: also called Zika VLP; ZVLP
- Experiment notes: BLI binning on ZIKV-VLP; 1st mAb (row): 102-1
Experimental readout: response of 2nd mAb
I'd appreciate a reply containing only the number, no unit.

Would you please look over these solved cases?
# Binder, Experimental readout, Endpoint result
records = [
    ("anti-ZIKV antibody 289-3 (antibody, V domains shown, also called clone 289-3; subclone 289-3) VH: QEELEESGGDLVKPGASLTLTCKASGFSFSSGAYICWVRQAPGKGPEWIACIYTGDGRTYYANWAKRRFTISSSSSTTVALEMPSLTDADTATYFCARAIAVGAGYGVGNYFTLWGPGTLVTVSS VL: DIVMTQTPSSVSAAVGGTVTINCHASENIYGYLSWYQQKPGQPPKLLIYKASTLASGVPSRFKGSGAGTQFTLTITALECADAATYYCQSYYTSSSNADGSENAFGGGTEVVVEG", "response of 2nd mAb", 0.0047),
    ("anti-ZIKV antibody 306-2 (antibody, V domains shown) VH: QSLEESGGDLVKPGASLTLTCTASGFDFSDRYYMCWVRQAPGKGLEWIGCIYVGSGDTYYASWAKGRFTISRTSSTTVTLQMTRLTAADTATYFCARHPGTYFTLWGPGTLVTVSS VL: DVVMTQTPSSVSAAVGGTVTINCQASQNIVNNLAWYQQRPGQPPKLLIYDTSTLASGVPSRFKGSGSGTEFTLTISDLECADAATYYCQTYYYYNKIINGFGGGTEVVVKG", "response of 2nd mAb", 0.0269),
    ("anti-ZIKV antibody 242-3 (antibody, V domains shown, also called clone 242-3) VH: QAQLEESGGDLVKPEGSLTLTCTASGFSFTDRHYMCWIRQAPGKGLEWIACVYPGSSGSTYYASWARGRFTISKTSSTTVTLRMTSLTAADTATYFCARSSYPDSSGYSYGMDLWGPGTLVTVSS VL: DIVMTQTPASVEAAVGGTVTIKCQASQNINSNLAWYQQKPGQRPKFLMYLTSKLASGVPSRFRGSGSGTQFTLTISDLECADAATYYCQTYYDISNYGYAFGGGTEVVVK", "response of 2nd mAb", 0.0181),
]

Now take the following binder into account.
Notebook: anti-ZIKV antibody 270-12 (antibody, V domains shown, also called clone 270-12) VH: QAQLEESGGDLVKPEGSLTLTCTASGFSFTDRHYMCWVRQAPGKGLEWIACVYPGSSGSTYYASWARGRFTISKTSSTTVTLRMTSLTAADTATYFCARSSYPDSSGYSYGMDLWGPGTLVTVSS VL: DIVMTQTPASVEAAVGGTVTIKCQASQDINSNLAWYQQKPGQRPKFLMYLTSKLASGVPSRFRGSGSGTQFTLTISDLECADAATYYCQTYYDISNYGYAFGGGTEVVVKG , response of 2nd mAb read as -0.004
